Exercise: state measured viability, T/C for each of the compounds provided.
# Test system: HOP-62 multicell spheroids with HUVEC/MSC, viability
# protocol.description: Anticancer human tumor HOP-62 cell line growth inhibition [KRAS2];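 note: viability read after a week of compound exposure; 100% = DMSO vehicle-treated spheroids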
# condition.set: second compound 3.16 µM; first compound 0.0316 µM; active compounds read low
# Text: Multicellular complex tumor spheroid response to RAS pathway inhibitors in combination with a targeted agents in patient-derived cell lines with oncogenic KRAS variants from multiple cancer types A high-throughput screen of multi-cell type tumor spheroids was designed to identify active combinations of targeted small molecules and KRAS pathway inhibitors. […] Compounds. […] If the clinical Cmax for an agent had not been determined, the highest concentration tested was 10 microM. […]
Numbers only, in %.

// below: answered compounds
INSERT INTO assay_data (compound, quantity_unit, reading) VALUES
  ('CCN1CCN(Cc2ccc(Nc3ncc(F)c(-c4cc(F)c5nc(C)n(C(C)C)c5c4)n3)nc2)CC1 + C=CC(=O)N1CCN(c2nc(=O)n(-c3c(C)ccnc3C(C)C)c3nc(-c4c(O)cccc4F)c(F)cc23)C(C)C1', '%', 57.4),
  ('CC1COCCN1c1cc(-c2ccnn2C)c2ccnc(-c3ccn[nH]3)c2n1 (stereo not drawn) + COc1cc2nc(C)nc(NC(C)c3cc(N)cc(C(F)(F)F)c3)c2cc1OC1CCOC1', '%', 38.2);

Asked: Answer with the recorded viability, T/C of COC(=O)c1ccc2c(C(=Nc3ccc(N(C)C(=O)CN4CCN(C)CC4)cc3)c3ccccc3)c(O)[nH]c2c1 + CC1OCC2(CCN(c3cnc(Sc4ccnc(N)c4Cl)c(N)n3)CC2)C1N only.
Given back: 27
